cytotoxicity at 70.5 h values by entry
# EXPERIMENT_NOTES: Human HepG2 cell viability assay in 384 well format
# Type: toxicity, cell-based
# Design: dose 125 nL, time 70.5 hour; concentration not given beside the values
# CONDITIONS: HepG2 cells, read-out: Inhibition
Write the number in % without appending the unit.

Look over these answered cases.
1) Cc1ccc(-n2c(C)nnc2SCC(O)COCc2ccco2)cc1 (stereo unspecified) | -5.42
2) CCCC(=O)N1CCc2c(CNS(C)(=O)=O)cncc2C1 | -8.58
3) CCS(=O)(=O)c1ccc(NCc2csc(C(C)C)n2)cc1 | 4.81

IN: Need cytotoxicity at 70.5 h of CC(C)c1nc(CC(=O)Nc2cnccc2O)cs1 , thanks.
OUT: -3.73

IN: Given the molecule C=Cn1ncc(CN2C[C@@H]3CCCN3C[C@H]2CCSC)c1C , what is its reported cytotoxicity at 70.5 h?
OUT: -12.3

IN: I would be grateful if you could share the reported cytotoxicity at 70.5 h for Cc1cccnc1CNC(=O)N(CCCO)C1CCc2ccccc21 (stereo unspecified) .
OUT: -12.3

###

# EXPERIMENT_NOTES: Human HepG2 cell viability assay in 384 well format
# Type: toxicity, cell-based
# Design: dose 125 nL, time 70.5 hour; concentration not given beside the values
# CONDITIONS: HepG2 cells, read-out: Inhibition
Here, each record is paired with measured cytotoxicity at 70.5 h data.
Return type: number; implicit unit %.

1) CC(=O)N1Cc2nccn2CC(CNC(=O)c2cnccn2)C1 (configuration not stated) | -13.1
2) O=C(c1n[nH]c2c1CN(C1CCOC1)CC2)N1CCCC1 (configuration not stated) | -1.72
3) Cc1cc(N(C)Cc2snnc2C)nc(-c2cccnc2)n1 | -12.5

Attention now shifts to the item below.
IN: # lookup: cytotoxicity at 70.5 h of CCc1nc(NCc2ccccn2)c2c(n1)c(C)nn2C
OUT: 30.9

###

Recorded cytotoxicity at 70.5 h, one value per entry.
# EXPERIMENT_NOTES: Human HepG2 cell viability assay in 384 well format
# Type: toxicity, cell-based
# Set-up: dose 125 nL, time 70.5 hour; concentration not given beside the values
# CONDITIONS: HepG2 cells, read-out: Inhibition

Example entries begin here.
1. CC(C)c1nccn1C(C)C(=O)N1CCN(c2cnccn2)CC1 (centres undefined) | -11.1%
2. CCn1cc(NC(=O)C2CCN(CC(=O)N3CCOCC3)CC2)cn1 | -19%
3. CC(=O)N1CCC1c1cc(N2CC(O)C2)nc(C)n1 (centres undefined) | -11.3%
4. Cc1cc(-c2nn(C)c(Cl)c2CN2CCOCC2CC(N)=O)no1 (centres undefined) | 6.65%
5. Cc1cnc(CNC2CCc3nc(C(C)C)nn3C2)cn1 (centres undefined) | -2.01%

IN: I'd like to know its cytotoxicity at 70.5 h. The compound in question is CC(=O)Nc1ccc2c(c1)CN(C(=O)c1ccco1)CC2
OUT: 18.4%

IN: # lookup: cytotoxicity at 70.5 h of COCCN1CCC(CNC(=O)C2(c3cccc(C)c3)CC2)CC1
OUT: -4.42%

IN: Given the compound COc1ccc(OCCN(C)C(=O)NC(C)c2nncn2C)cc1 (centres undefined) , what is its reported cytotoxicity at 70.5 h?
OUT: -1.05%

IN: Report cytotoxicity at 70.5 h for Cc1ccc(C(=O)N2CCC(c3nccn3Cc3ccncc3)CC2)s1 please.
OUT: -8.45%

IN: // cytotoxicity at 70.5 h lookup, key: CC(C)CN1C[C@@H]2CN(S(=O)(=O)c3cccs3)C[C@@H]2C1=O
OUT: -10.3%

Source: ChEMBL document CHEMBL3507680
